Target: recombinantly expressed PAS-B domain of HIF-1α (Homo sapiens (Human))
Sequence (Q16665 228-298): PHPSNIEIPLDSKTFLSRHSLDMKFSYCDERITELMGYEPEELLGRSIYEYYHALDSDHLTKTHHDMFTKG
Test: MST binding affinity to PAS-B domain of HIF-1α
Details: microscale thermophoresis, 50 nM labelled protein, 10% DMSO
pKd: −log10 of the molar value. *1 amine or outer side, *2 acyl side, *3 side chain or, on linkers, in order; H or OH if unused. Where a SMILES comes first, the peptide text is derived from it. [ ]: non-standard residue; d: D form. Phe(4-I) = N[C@@H](Cc1ccc(I)cc1)C(=O)O; hLeu = CC(C)CC[C@H](N)C(=O)O; CO = O=C([*:1])[*:2]
So I've got a bunch of compounds here, and I need their pKd values.

// each listed compound needs a value for pKd
1. CC(C)CC[C@H](NS(=O)(=O)c1cc(Cl)c(Cl)s1)C(=O)N[C@@H](Cc1ccc(I)cc1)C(=O)N[C@@H](CC(F)(F)F)C(=O)NCCCCl [Example 66]
2. Cc1c(S(=O)(=O)N[C@@H](CCC(C)C)C(=O)N[C@@H](Cc2ccc(I)cc2)C(=O)N[C@@H](CS)C(N)=O)sc2ccc(Cl)cc12 [Example 28]
3. CC(C)CC[C@H](NS(=O)(=O)c1cc(Cl)c(Cl)s1)C(=O)N(C)[C@@H](Cc1ccc(I)cc1)C(=O)N[C@@H](CN1CCOCC1)C(=O)NCCCCl [Example 67]
4. CC(C)CC[C@H](NS(=O)(=O)c1cc(Cl)c(Cl)s1)C(=O)N[C@@H](Cc1ccc(I)cc1)C(=O)N[C@@H](CS(N)(=O)=O)C(=O)NCCCCl [Example 68]
5. CC(C)CC[C@H](NS(=O)(=O)c1cc(Cl)c(Cl)s1)C(=O)N(C)[C@@H](Cc1ccc(I)cc1)C(=O)N[C@@H](CN)C(=O)NCCCCl [Example 59]
6. CNC(=O)N[C@@H](CCC(C)C)C(=O)N[C@@H](Cc1ccc(I)cc1)C(=O)N[C@@H](CS)C(N)=O [Example 5] ({NHMe-CO}-[hLeu]-[Phe(4-I)]-Cys-NH2)
7. CC(C)CC[C@H](NS(=O)(=O)c1cc(Cl)c(Cl)s1)C(=O)N[C@@H](Cc1ccc(I)cc1)C(=O)N[C@@H](CC(N)=O)C(=O)NCCCCl [Example 58]
8. CC(C)CC[C@H](NS(=O)(=O)c1ccc(Cl)s1)C(=O)N[C@@H](Cc1ccc(I)cc1)C(=O)N[C@@H](CS)C(=O)NCCCCCN [Example 40]

Response:
1. < 3.90
2. 5.10
3. < 3.30
4. < 3.30
5. < 3.30
6. < 4.30
7. < 3.30
8. 4.00

Prompt: Report pKd for CNC[C@H](NC(=O)[C@H](Cc1ccc(I)cc1)NC(=O)[C@H](CCC(C)C)NS(=O)(=O)c1cc(Cl)c(Cl)s1)C(=O)NCCCCl [Example 72] please.
Response: < 3.30
